B1: tRNA (parent)
chain: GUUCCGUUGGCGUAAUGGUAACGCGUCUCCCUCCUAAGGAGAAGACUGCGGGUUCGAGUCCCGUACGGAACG

variants of: B1; experiment: yeast fitness relative to wild type (ratio to wild type); higher = fitter; tRNA-Arg(CCU), competitive growth, 37 C, YPD
Variants at the floor of the assay were thinned out.
yeast fitness: recorded values
Quick one: just the number, no unit, thanks!

Worked cases, answers included:
SEQUENCE_ENTRY	yeast fitness
GUUCCGUUGGCGUAAUGGUAACGCGUCUCCCUCCUAAGGAAAAGACUCCGGGUUCGAGUCCCGUACGGAACG [G41A G48C]	0.772
GUUCCGUUGGCGUAAUGGUAACGCGUCUCCCUCCUAAGGAGAAGAGUACGGGUUCGAGUCCCGUACGGAACG [C46G G48A]	0.998

Please look up its yeast fitness: GCUUCGUUGGCGUAAUGGUAACGCGUCUCACUCCUAAGGAGAAGACUGCGGGUUCGAGUCCCGUACGGAACG [U2C C4U C30A]
0.716

What does the record list as yeast fitness for GUUCCGUUGGCGUAAUGGUAACGCGUCUACCUCCUAAGGAGAAGACUGCGGGUUCCUGUCCCGUACGGAACG [C29A G56C A57U] ?
0.583

Consider the variant shown here: GUUCCGUAGGCGUCAUGGUAACGCGUCUCCAUCCUAAGGACAAGACUGAGGGUUCGAGUCCCGUACGGAACG [U8A A14C C31A G41C C49A] What is its recorded yeast fitness?
0.562

Origin of values: the RNAGym collection of RNA variant scans (doi:10.1126/science.aae0568)
